The origin of these recorded values is ChEMBL document CHEMBL4706557.

Test system: MGC-803
Assay: Antiproliferative activity against human MGC-803 cells assessed as inhibition of cell growth incubated for 72 hrs by SRB assay
Type: functional, cell-based
Settings: MGC-803, 72 h
experimental-endpoint: IC50 (nM)

Some compounds with known IC50 results, for comparison:
C=C1C(=O)[C@@]23[C@H](O)C[C@@H]4C(C)(C)CCC[C@@]4(COC(C)=O)[C@@H]2[C@@H](O)C[C@H]1[C@H]3OC(=O)c1cccc(OC)c1 :: 460
C=C1C(=O)[C@@]23[C@H](O)C[C@@H]4C(C)(C)CCC[C@@]4(COC(C)=O)[C@@H]2[C@@H](O)C[C@H]1[C@H]3OC(=O)c1ccc(C)cc1 :: 480

(a) C=C1C(=O)[C@@]23[C@H](O)C[C@@H]4C(C)(C)CCC[C@@]4(COC(C)=O)[C@@H]2[C@@H](O)C[C@H]1[C@H]3OC(=O)c1cc(Cl)ccc1OC
(b) C=C1C(=O)[C@@]23[C@H](O)C[C@@H]4C(C)(C)CCC[C@@]4(COC(C)=O)[C@@H]2[C@@H](O)C[C@H]1[C@H]3OC(=O)c1cccc(Cl)c1
Q. Sorting ascending by IC50, which comes first: a or b ? Kindly give the label for the entry you pick.
A. b
(b: 410 nM, a: 660 nM)
